Source listed as ChEMBL document CHEMBL1136787.

- experiment summary: Ratio (CIC95/IC50) of cellular antiviral activity over the isolated enzyme potency
- Format: functional
Can you tell me C/I for the items I'm about to list?
One number for each entry.

{"molecule": "CC(C)(C)NC(=O)[C@@H]1CN(Cc2cccnc2)CCN1C[C@@H](O)C[C@@H](Cc1ccccc1)C(=O)N[C@H]1c2ccccc2C[C@H]1O.O", "experimental readout": "C/I", "data value": 69}
{"molecule": "O=C(N[C@@H](Cc1ccccc1)[C@@H](O)C[C@]1(Cc2ccccc2)N=CC(C2CNC(=O)c3ccccc32)=C1O)O[C@H]1CCOC1 (single isomer, unassigned; (+))", "experimental readout": "C/I", "data value": 137}
{"molecule": "NC(=O)O[C@@H]1Cc2ccccc2C1C1=C(O)[C@](Cc2ccccc2)(C[C@H](O)[C@H](Cc2ccccc2)NC(=O)O[C@H]2CCOC2)N=C1 (single isomer, unassigned; (-))", "experimental readout": "C/I", "data value": 125}
{"molecule": "O=C(N[C@@H](Cc1ccccc1)[C@@H](O)C[C@@H](Cc1ccccc1)C(=O)N[C@H]1c2ccccc2C[C@H]1O)OC1CCOC1 (stereo not given in full)", "experimental readout": "C/I", "data value": 100}

Now, please, on to the next molecule.
Asked: // C/I lookup, key: CC(C)(C)OC(=O)N[C@@H](Cc1ccccc1)[C@@H](O)C[C@@H](Cc1ccccc1)C(=O)N[C@H]1c2ccccc2C[C@H]1O
Given back: 1333
